ASSAY_TARGET: KDR (Homo sapiens)
Sequence (P35968 786-1356 limits assumed): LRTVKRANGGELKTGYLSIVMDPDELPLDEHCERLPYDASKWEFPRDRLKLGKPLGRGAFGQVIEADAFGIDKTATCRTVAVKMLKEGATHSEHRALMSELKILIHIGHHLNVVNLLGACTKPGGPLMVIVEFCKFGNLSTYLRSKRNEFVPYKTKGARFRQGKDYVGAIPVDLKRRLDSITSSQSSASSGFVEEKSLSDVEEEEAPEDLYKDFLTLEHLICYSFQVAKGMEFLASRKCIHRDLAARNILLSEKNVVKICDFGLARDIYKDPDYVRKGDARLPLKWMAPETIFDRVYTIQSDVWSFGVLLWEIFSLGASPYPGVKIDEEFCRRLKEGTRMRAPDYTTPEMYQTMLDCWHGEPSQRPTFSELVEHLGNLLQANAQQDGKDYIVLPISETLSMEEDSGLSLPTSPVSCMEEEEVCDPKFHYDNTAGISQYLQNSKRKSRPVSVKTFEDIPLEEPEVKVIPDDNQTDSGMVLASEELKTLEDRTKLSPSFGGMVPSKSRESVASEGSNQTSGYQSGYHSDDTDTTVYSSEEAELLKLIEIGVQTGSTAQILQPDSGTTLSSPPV
ASSAY_NAME: In vitro receptor tyrosine kinase inhibition test (a), KDR
ASSAY_CONTEXT: read-out: IC50 in the enzyme assay (a) against KDR
RECORDED_METRIC: IC50 (nM)

1) COc1cc2c(Nc3ccc(Br)cc3F)ncnc2cc1OCC1CCN(C(=O)CN(C)C)CC1 [Example 1]
29
